measured on: Dickkopf-related protein 1 (Homo sapiens)
protocol text: DKK1 binders on small-molecule microarrays, primary screen, biochemical, small-molecule microarray, 635 nm fluorescence scan (AID 1106);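 also: score merges emission near 667 nm with signal to noise over three replicate slides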
experimental context: DKK1 binding, higher = more signal
Field: composite z-score. Provide a value for each of the molecules that follow.

Below, 3 molecules whose answers are already recorded.
molecule: COCC(=C=CC[C@H](O)c1ccc(OCCO)cc1)C[C@H](O)c1cc(Cl)cc(Cl)c1O
quantity kind: composite z-score
recorded result: -0.043

molecule: COc1ccc([Si](C)(C)[C@H]2[C@H](CC(=O)N(CCO)Cc3ccccc3)O[C@@]3(C(=O)N(Cc4cccc(N5CCC5=O)c4)c4ccccc43)[C@@H]2C)cc1
quantity kind: composite z-score
recorded result: 0.696

molecule: O=C(OCCF)C1=CCC(c2cccc(Cl)c2)O1 (centres undefined)
quantity kind: composite z-score
recorded result: -0.183

Proceed to the following item.
Enquiry: GET /values?readout=composite z-score&item= "C=C[C@H](COC(C)=O)N(Cc1ccc(OC(C)=O)c(OC)c1)S(=O)(=O)c1ccc(Br)cc1"
Return: 0.844
